- Experimental target: SARS-CoV-2 Nsp15 (Severe acute respiratory syndrome coronavirus 2)
- Assay name: biochemical
- Type: biochemical
- Setup conditions: fit to Michaelis-Menten inhibition models; read-out: Computed Ki ± SE
Metric: Ki (µM)
Just the number in µM, nothing appended.

Ki in this record for Oc1ccc2ccccc2c1SSc1c(O)ccc2ccccc12 [IPA-3, reference compound] : 10.8

* * *

- Experimental target: SARS-CoV-2 Nsp15 (Severe acute respiratory syndrome coronavirus 2)
- Assay name: biochemical
- Format: biochemical
- Setup conditions: extra sum-of-squares F test, highest inhibitor dose
Metric: Vmax diff. vs DMSO

Vmax diff. vs DMSO in this record for Oc1c(Cl)cc(Cl)c(Cl)c1Cc1c(O)c(Cl)cc(Cl)c1Cl [hexachlorophene, reference compound] : Yes

Vmax diff. vs DMSO in this record for O=C(N/N=C/c1ccccc1O)c1ccc(O)c(O)c1 : Yes

Vmax diff. vs DMSO in this record for Oc1ccc2ccccc2c1SSc1c(O)ccc2ccccc12 [IPA-3, reference compound] : Yes

Vmax diff. vs DMSO in this record for O=C1/C(=C/c2cc([N+](=O)[O-])cc(Br)c2O)SC(=S)N1Cc1ccccc1 : Yes

New cases:
Vmax diff. vs DMSO in this record for CC(=O)Nc1ccc(NS(=O)(=O)c2ccc3c(c2)C(=O)c2ccccc2C3=O)cc1 : No
